Data credit: the supplement of paper PMC4466140

# target_system: ScNbp2
# assay_remarks: SPOT peptide array binding signal intensity (averaged, normalized) (arbitrary units (background-subtracted, floor 0; scale differs between SH3 domains)); higher = stronger binding of the SH3 domain to the peptide
metric_name: SPOT peptide array binding signal intensity

ALKQKKIPPPFKPHL ≤ 0

IN: Look up SPOT peptide array binding signal intensity: SPLGAPPPPPHKDHL
OUT: ≤ 0

IN: Look up SPOT peptide array binding signal intensity: KTITLEVESSDTIDN
OUT: ≤ 0
